- test.system: DLG1_3, Q12959
- Sequence (Q12959 457-571): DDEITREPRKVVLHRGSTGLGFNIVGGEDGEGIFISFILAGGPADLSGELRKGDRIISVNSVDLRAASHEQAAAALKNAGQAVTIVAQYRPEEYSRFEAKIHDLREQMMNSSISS
- assay.text: holdup assay
- Parameters: key: below the threshold = too weak to quantify, mostly under pKd 3.1 to 4
- details: plain residues with an end cap or a label only (N-terminal biotin on a linker: ado-ado)
parameter.measured: pKd

1) KPGKGSETVV [FZD4, Q9ULV1]
below the threshold
2) IDESKKEWLI [CNTNAP2, Q9UHC6]
below the threshold
3) GEDRSPPTAL [MKNK1, Q9BUB5]
below the threshold
